Biological target: Recombinant human DDR2 (aa427-855 containing a GST tag) (Homo sapiens (Human))
Test: LanthaScreen Eu Kinase Binding Assay DDR2
Conditions: Kinase Tracer 178 10 nM, at least two independent replicates, read-out: DDR2 pIC50 (converted)
Measured IC50 by item

I am curious: what IC50 value has been reported for Cc1nc(-c2cncc3c2cnn3C)cnc1-n1c(=O)n(CC(=O)N[C@@H](C)C(F)(F)F)c2cccc(C)c21 [Example 115] ?
10 to 100 nM

What do we get for O=C(Cn1c(=O)n(-c2ccc(-c3cncc4[nH]ncc34)cc2)c2ccccc21)NCC(F)(F)F [Example 41] ?
100 to 1000 nM

What do we get for Cn1ncc2c(-c3ccc(-n4c(=O)n(CC(=O)N5CCCCC5C(F)(F)F)c5ccccc54)cc3)cncc21 (stereo not shown) [Example 20] ?
100 to 1000 nM

What do we get for Cc1cc(-c2cncc3[nH]ncc23)ccc1-n1c(=O)n(CC(=O)NCC(F)(F)F)c2ccccc21 [Example 14] ?
100 to 1000 nM

What do we get for Cc1cc(-c2cncc3c2cnn3C)ccc1-n1c(=O)n(CC(=O)NCC(F)(F)F)c2cccc(Cl)c21 [Example 83] ?
100 to 1000 nM

###

Molecular target: Recombinant human DDR1 (aa440-876 containing a GST tag) (Homo sapiens (Human))
Assay: LanthaScreen Eu Kinase Binding Assay DDR1
Settings: Kinase Tracer 178 5 nM, at least two independent replicates, read-out: DDR1 pIC50 (converted)
Measured IC50 by item

The following molecules have reported results that may help.
> print(dat)
                                   molecule          result
1  Cc1cccc2c1n(-c1ccc(-c3cncc4c3cnn4C)nc1)c(=O)n2CC(=O)N[C@H](C)C(F)(F)F    10 to 100 nM
2  Cn1ncc2c(-c3ccc(-n4c(=O)n(CC(=O)NCC(F)(F)F)c5cccc(F)c54)cc3)cncc21  100 to 1000 nM
3  Cn1ncc2c(-c3ccc(-n4c(=O)n(CC(=O)NCCC(F)(F)F)c5ccccc54)cc3)cncc21    10 to 100 nM
4  Cn1ncc2c(-c3ccc(-n4c(=O)n(CC(=O)NCC(F)(F)F)c5cccc(C#N)c54)cc3)cncc21    10 to 100 nM
5  Cn1ncc2c(-c3ccc(-n4c(=O)n(CC(=O)N5CCC[C@H]5C(F)(F)F)c5cccnc54)cc3)cncc21    10 to 100 nM

I am curious: what IC50 value has been reported for Cc1cccc2c1n(-c1ncc(-c3cncc4[nH]ncc34)cn1)c(=O)n2CC(=O)N[C@H](C)C(F)(F)F ?
100 to 1000 nM

###

Measured IC50 by item
Target: Recombinant human DDR2 (aa427-855 containing a GST tag) (Homo sapiens (Human))
Experiment: LanthaScreen Eu Kinase Binding Assay DDR2
Details: Kinase Tracer 178 10 nM, at least two independent replicates, read-out: DDR2 pIC50 (converted)

The following compounds have reported results that may help.
> print(dat)
                                   compound          result
1  Cc1nc(-c2cncc3c2cnn3C)ccc1-n1c(=O)n(CC(=O)N[C@H](C)C(F)(F)F)c2cccc(C)c21  100 to 1000 nM
2  Cc1cccc2c1n(-c1ccc(-c3cncc4c3cnn4C)nc1)c(=O)n2CC(=O)N1CCO[C@H](C(F)(F)F)C1    10 to 100 nM
3  Cc1cccc2c1n(-c1ccc(-c3cncc4c3cnn4C)cc1)c(=O)n2CC(=O)N1CCC[C@H]1C(F)F    10 to 100 nM
4  Cc1cccc2c1n(-c1ccc(-c3cncc4[nH]ncc34)cn1)c(=O)n2CC(=O)N[C@@H](C)C(F)(F)F    10 to 100 nM
5  Cn1ncc2c(-c3ccc(-n4c(=O)n(CC(=O)N5CCC[C@H]5C(F)(F)F)c5ccccc54)cc3)cncc21  100 to 1000 nM
6  Cc1cccc2c1n(-c1ccc(-c3cncc4c3cnn4C)cc1)c(=O)n2CC(=O)N1CCO[C@@H](C(F)(F)F)C1    10 to 100 nM

I am curious: what IC50 value has been reported for Cc1cccc2c1n(-c1ccc(-c3cncc4c3cnn4C)cc1)c(=O)n2CC(=O)N1CCC[C@H]1CF ?
10 to 100 nM

What do we get for Cc1cccc2c1n(-c1cnc(-c3cncc4c3cnn4C)nc1)c(=O)n2CC(=O)NCC(F)(F)F ?
100 to 1000 nM

###

Target: Recombinant human DDR1 (aa440-876 containing a GST tag) (Homo sapiens (Human), UniProt Q08345)
Sequence (Q08345 other isoform, or with tags, fused parts or gaps): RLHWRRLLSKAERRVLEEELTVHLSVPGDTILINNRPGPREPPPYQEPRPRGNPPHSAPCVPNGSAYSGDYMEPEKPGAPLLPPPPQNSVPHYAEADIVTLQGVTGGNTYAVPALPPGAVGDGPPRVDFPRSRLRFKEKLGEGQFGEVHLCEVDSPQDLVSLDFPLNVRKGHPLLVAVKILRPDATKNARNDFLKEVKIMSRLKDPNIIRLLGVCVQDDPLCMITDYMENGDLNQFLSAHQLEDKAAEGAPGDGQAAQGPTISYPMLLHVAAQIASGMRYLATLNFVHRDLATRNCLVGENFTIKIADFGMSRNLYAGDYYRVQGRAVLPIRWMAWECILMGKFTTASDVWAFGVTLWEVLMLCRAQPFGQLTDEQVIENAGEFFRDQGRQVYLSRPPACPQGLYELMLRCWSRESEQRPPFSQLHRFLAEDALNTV
Assay: LanthaScreen Eu Kinase Binding Assay DDR1
Settings: Kinase Tracer 178 5 nM, at least two independent replicates, read-out: DDR1 pIC50 (converted)
Measured IC50 by item

The following compounds have reported results that may help.
> print(dat)
                                   compound          result
1  Cc1cccc2c1n(-c1cnc(-c3cncc4c3cnn4C)nc1)c(=O)n2CC(=O)NCC(F)(F)F    10 to 100 nM
2  Cc1cc(-c2cncc3c2c(C)nn3C)ncc1-n1c(=O)n(CC(=O)NCC(F)(F)F)c2cccc(C)c21  100 to 1000 nM
3  Cc1cccc2c1n(-c1ccc(-c3cncc4c3cnn4C)cc1)c(=O)n2CC(=O)N1CCC[C@H]1CF    10 to 100 nM
4  Cc1cc(-c2cncc3c2cnn3C)ncc1-n1c(=O)n(CC(=O)N[C@H](C)C(F)(F)F)c2cccc(C)c21  100 to 1000 nM
5  Cc1cc(-c2cncc3c2cnn3C)cnc1-n1c(=O)n(CC(=O)NCC(F)(F)F)c2cccc(C)c21    10 to 100 nM
6  CC(NC(=O)Cn1c(=O)n(-c2ccc(-c3cncc4c3cnn4C)cc2)c2ccccc21)C1CC1 (stereo not shown)    10 to 100 nM

Field: next compound
I am curious: what IC50 value has been reported for Cn1ncc2c(-c3ccc(-n4c(=O)n(CC(=O)N5CCO[C@@H](C(F)(F)F)C5)c5ccccc54)cc3)cncc21 ?
10 to 100 nM

###

Biological target: Recombinant human DDR2 (aa427-855 containing a GST tag) (Homo sapiens (Human), UniProt Q16832)
Sequence (Q16832 427-855): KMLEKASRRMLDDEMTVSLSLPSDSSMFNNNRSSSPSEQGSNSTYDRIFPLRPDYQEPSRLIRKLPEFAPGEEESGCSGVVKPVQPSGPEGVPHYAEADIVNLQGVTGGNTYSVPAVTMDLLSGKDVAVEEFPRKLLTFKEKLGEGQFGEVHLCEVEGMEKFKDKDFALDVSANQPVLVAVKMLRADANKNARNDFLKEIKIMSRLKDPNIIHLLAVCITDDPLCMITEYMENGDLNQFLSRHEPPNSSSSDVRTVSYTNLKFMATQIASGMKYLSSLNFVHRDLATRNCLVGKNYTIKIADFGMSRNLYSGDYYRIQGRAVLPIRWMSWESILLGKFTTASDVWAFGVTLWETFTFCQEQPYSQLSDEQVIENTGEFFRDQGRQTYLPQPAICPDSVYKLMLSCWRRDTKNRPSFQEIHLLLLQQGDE
Assay: LanthaScreen Eu Kinase Binding Assay DDR2
Details: Kinase Tracer 178 10 nM, at least two independent replicates, read-out: DDR2 pIC50 (converted)
PROPERTY_NAME: IC50

> print(dat)
                                   compound          result
1  Cc1nc(-c2cncc3c2cnn3C)cnc1-n1c(=O)n(CC(=O)NCC(F)(F)F)c2cccc(C)c21  100 to 1000 nM
2  Cc1nc(-n2c(=O)n(CC(=O)NCC(F)(F)F)c3cccc(C)c32)cnc1-c1cncc2[nH]nc(C)c12  100 to 1000 nM
3  Cn1ncc2c(-c3ccc(-n4c(=O)n(CC(=O)N5CCCC5C(F)(F)F)c5ccccc54)cc3)cncc21 (stereo not drawn)    10 to 100 nM

I am curious: what IC50 value has been reported for Cc1cccc2c1n(-c1ccc(-c3cncc4c3cnn4C)cn1)c(=O)n2CC(=O)N1CCC[C@H]1C(F)(F)F ?
10 to 100 nM

What do we get for CC(NC(=O)Cn1c(=O)n(-c2ccc(-c3cncc4c3cnn4C)cc2)c2ccccc21)C(F)(F)F (stereo not drawn) ?
100 to 1000 nM

What do we get for Cc1cccc2c1n(-c1ccc(-c3cncc4c3cnn4C)nc1)c(=O)n2CC(=O)N1CCOC(C(F)(F)F)C1 (stereo in doubt) ?
100 to 1000 nM

What do we get for Cc1cccc2c1n(-c1ccc(-c3cncc4[nH]ncc34)nc1)c(=O)n2CC(=O)N[C@@H](C)C(F)(F)F ?
10 to 100 nM

What do we get for Cc1cccc2c1n(-c1ccc(-c3cncc4[nH]ncc34)cn1)c(=O)n2CC(=O)N1CCO[C@H](C(F)(F)F)C1 ?
100 to 1000 nM

What do we get for Cc1cccc2c1n(-c1ccc(-c3cncc4[nH]ncc34)cc1)c(=O)n2CC(=O)NCC(F)(F)F ?
10 to 100 nM
